Molecular target: UniProtKB P62942
Sequence (P62942 whole entry): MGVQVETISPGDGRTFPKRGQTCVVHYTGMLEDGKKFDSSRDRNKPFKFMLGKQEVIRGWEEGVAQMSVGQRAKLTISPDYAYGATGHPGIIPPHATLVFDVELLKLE
Assay: competitive fluorescence polarization assay, binding to FKBP12
Conditions: Table 2; read-out: FKBP12 Ki
# Ki per record follows
Property Label: Ki

Compound	Tgt	Data Value
COc1ccc(CC[C@H]2OC(=O)[C@@H]3CCCCN3C(=O)[C@@H](C3CCCCC3)NC(=O)CNC(=O)COc3cccc2c3)cc1OC	UniProtKB P62942	> 80 µM
COc1ccc(CC[C@H]2OC(=O)[C@@H]3CCCCN3C(=O)[C@@H](C3CCCCC3)NC(=O)C3(CCCC3)NC(=O)COc3cccc2c3)cc1OC	UniProtKB P62942	> 80 µM
COc1ccc(CC[C@H]2OC(=O)[C@@H]3CCCCN3C(=O)[C@@H](C3CCCCC3)NC(=O)[C@@H]3CCCN3C(=O)COc3cccc2c3)cc1OC	UniProtKB P62942	> 80 µM
COc1ccc(CC[C@@H](OC(=O)[C@@H]2CCCCN2C(=O)[C@H](c2cc(OC)c(OC)c(OC)c2)C2CCCCC2)c2cccc(OCC(=O)O)c2)cc1OC [SAFit1, reference compound]	UniProtKB P62942	0.163 µM
COc1ccc(CC[C@H]2OC(=O)[C@@H]3CCCCN3C(=O)[C@@H](C3CCCCC3)NC(=O)C(C)(C)NC(=O)COc3cccc2c3)cc1OC	UniProtKB P62942	> 80 µM
COc1ccc(CC[C@H]2OC(=O)[C@@H]3CCCCN3C(=O)[C@@H](C3CCCCC3)NC(=O)CN(C)C(=O)COc3cccc2c3)cc1OC	UniProtKB P62942	> 80 µM

* * *

Molecular target: FKBP12.6 (Homo sapiens, UniProt P68106)
Sequence (P68106 whole entry): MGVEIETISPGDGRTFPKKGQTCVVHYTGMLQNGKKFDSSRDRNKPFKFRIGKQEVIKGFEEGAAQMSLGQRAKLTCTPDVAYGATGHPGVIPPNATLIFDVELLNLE
Assay: competitive fluorescence polarization assay, binding to FKBP12.6
Settings: Table 2; read-out: FKBP12.6 Ki
pKi: −log10 of the molar value.
pKi: recorded values
Property Label: pKi

In [3]: df
Out[3]:
                                   compound  data_value
0  COc1ccc(CC[C@H]2OC(=O)[C@@H]3CCCCN3C(=O)[C@@H](C3CCCCC3)NC(=O)[C@H]3CCCN3C(=O)COc3cccc2c3)cc1OC [Compound 90]      < 4.10
1  COc1ccc(CC[C@H]2OC(=O)[C@@H]3CCCCN3C(=O)[C@@H](C3CCCCC3)NC(=O)C3(CCCC3)NC(=O)COc3cccc2c3)cc1OC [Compound 88]      < 4.10
2  COc1ccc(CC[C@H]2OC(=O)[C@@H]3CCCCN3C(=O)[C@@H](C3CCCCC3)NC(=O)[C@@H]3CCC[C@H]3NC(=O)COc3cccc2c3)cc1OC [Compound 94]      < 4.10

* * *

Target: UniProt:Q13451
Sequence (Q13451 42-130 limits assumed): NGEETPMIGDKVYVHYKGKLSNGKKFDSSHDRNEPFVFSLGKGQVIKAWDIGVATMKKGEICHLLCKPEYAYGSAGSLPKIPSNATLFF
Assay: biochemical
Conditions: Ki [nM] FKBP51FK1, Table 1, competitive Fluorescence Polarization Assay
# fulfilled = Ki below 70 nM (exclusive); not fulfilled = Ki at/above 70 nM

Compound	Tgt	Assigned Label
COc1ccc(CC[C@H]2OC(=O)[C@@H]3CCCCN3C(=O)[C@@H](C3CCCCC3)c3cc(OC)c(OC)c(c3)OCCCCCOc3cccc2c3)cc1OC [Compound 44]	UniProt:Q13451	fulfilled
COc1ccc(CC[C@H]2OC(=O)[C@@H]3CCCCN3C(=O)[C@@H](C3CCCCC3)c3cc(OC)c(c(OC)c3)OCC/C=C\COc3cccc2c3)cc1OC [32-(Z)]	UniProt:Q13451	not fulfilled
COc1ccc(CC[C@H]2OC(=O)[C@@H]3CCCCN3C(=O)[C@@H](C3CCCCC3)c3cc(OC)c(OC)c(c3)OCCOCC(=O)CCOc3cccc2c3)cc1OC [Compound 62]	UniProt:Q13451	fulfilled
COc1ccc(CC[C@H]2OC(=O)[C@@H]3CCCCN3C(=O)[C@@H](C3CCCCC3)c3cc(OC)c(OC)c(c3)OCCOCCCCOc3cccc2c3)cc1OC [Compound 45]	UniProt:Q13451	fulfilled
COc1ccc(CCC2OC(=O)C3CCCCN3C(=O)C(C3CCCCC3)c3cc(OC)c(OC)c(c3)OC/C=C\COc3cccc2c3)cc1OC (centres unmarked) [35-(Z)]	UniProt:Q13451	not fulfilled
COc1ccc(CC[C@H]2OC(=O)[C@@H]3CCCCN3C(=O)[C@@H](C3CCCCC3)c3cc(OC)c(c(OC)c3)OCC(O)C(O)COc3cccc2c3)cc1OC (mixture of isomers) [Compound 63]	UniProt:Q13451	fulfilled
COc1ccc(CC[C@H]2OC(=O)[C@@H]3CCCCN3C(=O)[C@@H](C3CCCCC3)c3cc(OC)c(OC)c(c3)OCCCC(=O)COc3cccc2c3)cc1OC [Compound 61b]	UniProt:Q13451	fulfilled
COc1ccc(CCC2OC(=O)C3CCCCN3C(=O)C(C3CCCCC3)c3cc(OC)c(OC)c(c3)OCC(O)C(O)COc3cccc2c3)cc1OC (single isomer, unassigned) [Compound 64b]	UniProt:Q13451	fulfilled
COc1cccc([C@@H](CCc2ccc(OC)c(OC)c2)OC(=O)[C@@H]2CCCCN2C(=O)[C@H](c2cc(OC)c(OC)c(OC)c2)C2CCCCC2)c1 [Compound A1, reference compound]	UniProt:Q13451	not fulfilled
COc1ccc(CCC2OC(=O)C3CCCCN3C(=O)C(C3CCCCC3)c3cc(OC)c(OC)c(c3)OCC(O)C(O)COc3cccc2c3)cc1OC (single isomer, unassigned) [Compound 64a]	UniProt:Q13451	fulfilled
